Reference source for all entries: the supplement of paper PMC5722580

test system: YT; assay: drug sensitivity score (viability inhibition); higher = more sensitive; details: 72 h; IL2 2.5 ng/ml
MEASURED_PROPERTY: drug sensitivity score (DSS)

COMPOUND: NS(=O)(=O)c1cccc2c1C(=O)c1cccc(O)c1C2=O
TARGET_OR_SYSTEM: YT
NUMBER: 18.2
//
COMPOUND: C[C@@]1(C(=O)Nc2ccc(F)nc2)CCCN1c1nc(Nc2cc(C3CC3)n[nH]2)c2cccn2n1
TARGET_OR_SYSTEM: YT
NUMBER: 5.74
//
COMPOUND: CC1(C)CCC(c2ccc(Cl)cc2)=C(CN2CCN(c3ccc(C(=O)NS(=O)(=O)c4ccc(N[C@H](CCN5CCOCC5)CSc5ccccc5)c(S(=O)(=O)C(F)(F)F)c4)cc3)CC2)C1
TARGET_OR_SYSTEM: YT
NUMBER: 23.3
//
COMPOUND: CO[C@H]1C[C@@H]2CC[C@@H](C)[C@@](O)(O2)C(=O)C(=O)N2CCCC[C@H]2C(=O)O[C@H]([C@H](C)C[C@@H]2CC[C@@H](OC(=O)C(C)(CO)CO)[C@H](OC)C2)CC(=O)[C@H](C)/C=C(\C)[C@@H](O)[C@@H](OC)C(=O)[C@H](C)C[C@H](C)/C=C/C=C/C=C/1C
TARGET_OR_SYSTEM: YT
NUMBER: 14
//
COMPOUND: N#C/C(=C\c1ccc(O)c(O)c1)C(=O)NCc1ccccc1
TARGET_OR_SYSTEM: YT
NUMBER: 8.84
//
COMPOUND: COc1c(C)cnc(Cn2cnc3c(Cl)nc(N)nc32)c1C
TARGET_OR_SYSTEM: YT
NUMBER: 22.2
//
COMPOUND: CC1(COc2ccc3c(c2)ncn3-c2ccc3cccc(N4CCC(N)CC4)c3n2)COC1
TARGET_OR_SYSTEM: YT
NUMBER: 7.98
//
COMPOUND: COc1ccccc1S(=O)(=O)Nc1ccc2c(c1)CN(C)C(=O)N2
TARGET_OR_SYSTEM: YT
NUMBER: 3.24
//
COMPOUND: CN1CCN(CCOc2cc(OC3CCOCC3)c3c(Nc4c(Cl)ccc5c4OCO5)ncnc3c2)CC1
TARGET_OR_SYSTEM: YT
NUMBER: 2.46
//
COMPOUND: CN[C@@H]1C[C@H]2O[C@@](C)([C@@H]1OC)n1c3ccccc3c3c4c(c5c6ccccc6n2c5c31)C(=O)N[C@H]4O
TARGET_OR_SYSTEM: YT
NUMBER: 20.5
//
COMPOUND: C[C@@H]1CCN(C(=O)CC#N)C[C@@H]1N(C)c1ncnc2[nH]ccc12
TARGET_OR_SYSTEM: YT
NUMBER: 8.43
//
COMPOUND: N#CCNC(=O)c1ccc(-c2ccnc(Nc3ccc(N4CCOCC4)cc3)n2)cc1
TARGET_OR_SYSTEM: YT
NUMBER: 8.12
//
COMPOUND: COc1cc2c(cc1-c1c(C)noc1C)ncc1[nH]c(=O)n([C@H](C)c3ccccn3)c12
TARGET_OR_SYSTEM: YT
NUMBER: 7.05
//
COMPOUND: C#Cc1cccc(Nc2ncnc3cc4c(cc23)OCCOCCOCCO4)c1
TARGET_OR_SYSTEM: YT
NUMBER: 0.21
//
COMPOUND: CN(Cc1cnc2nc(N)nc(N)c2n1)c1ccc(C(=O)N[C@@H](CCC(=O)O)C(=O)O)cc1 [Methotrexate]
TARGET_OR_SYSTEM: YT
NUMBER: 15.8
